# assayed_target: TGFβ1 (Homo sapiens)
# Construct: the mature TGFβ1 is released by another cut; purchased R&D Systems Europe Ltd., Abingdon, UK
# Sequence (P01137 279-390): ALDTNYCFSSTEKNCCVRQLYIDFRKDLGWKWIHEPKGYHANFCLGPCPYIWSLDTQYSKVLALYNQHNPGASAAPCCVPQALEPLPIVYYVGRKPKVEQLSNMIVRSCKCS
# Assay type: cell-based
# condition: peptide 200 μg/ml; TGFβ1 200 pg/ml; MV-1-Lu cells
No end group written: not given here.
parameter_measured: inhibitory activity of TGFβ1 (in words)

substance: CDIHVLKQDGFSVLFTKCD (cysteine pairing not given here) [P149]
parameter_measured: inhibitory activity of TGFβ1 (in words)
result: not found to be active
--
substance: CysValAlaValTrpArgLysAsnAspGluAsnIleThrLeuGluThrValCys (CVAVWRKNDENITLETVC; Synthetic peptide from rat TGB beta 1 type III receptor, position 84-101) [P146]
parameter_measured: inhibitory activity of TGFβ1 (in words)
result: not found to be active
